Experiment: physchem
OUTCOME MEASURE: half-life (min)
Field format: number, assumed min, no unit text.

[Q] Look up half-life of CS(=O)(=O)OCCN(CCBr)c1c(C(=O)NCCO)cc([N+](=O)[O-])cc1[N+](=O)[O-] [PR104A] and report it.
[A] 612

* * *

Conditions: pH 7.4
OUTCOME MEASURE: Measured logD7.4

Worked cases, Measured logD7.4 given:
[
  {
    "COMPOUND": "NC(=O)c1cc([N+](=O)[O-])cc([N+](=O)[O-])c1N(CCI)CCI",
    "Measured logD7.4": 3.08
  },
  {
    "COMPOUND": "O=C(NCCO)c1cc(N(CCBr)CCBr)c([N+](=O)[O-])cc1[N+](=O)[O-]",
    "Measured logD7.4": 1.69
  },
  {
    "COMPOUND": "NC(=O)c1cc(N(CCOS(N)(=O)=O)CCOS(N)(=O)=O)c([N+](=O)[O-])cc1[N+](=O)[O-]",
    "Measured logD7.4": -0.95
  },
  {
    "COMPOUND": "CS(=O)(=O)OCCN(CCBr)c1cc(C(=O)NCC(O)CO)c([N+](=O)[O-])cc1[N+](=O)[O-] (stereo not shown)",
    "Measured logD7.4": -0.0453
  },
  {
    "COMPOUND": "NC(=O)c1cc(N(CCCl)CCBr)c([N+](=O)[O-])cc1[N+](=O)[O-]",
    "Measured logD7.4": 1.61
  }
]

[Q] Look up Measured logD7.4 of NC(=O)c1cc(NO)cc([N+](=O)[O-])c1N(CCO)CCO and report it.
[A] -1.36

[Q] Look up Measured logD7.4 of CS(=O)(=O)OCCN(CCOS(C)(=O)=O)c1cc(C(N)=O)c([N+](=O)[O-])cc1[N+](=O)[O-] and report it.
[A] -0.701

* * *

Conditions: pH 7.4
OUTCOME MEASURE: Measured logD7.4
The answer should be a number; do not append a unit.

[Q] Look up Measured logD7.4 of CS(=O)(=O)OCCN(CCBr)c1cc(C(N)=O)c([N+](=O)[O-])cc1[N+](=O)[O-] [I Br OSO2CH3 H] and report it.
[A] 0.493

[Q] Look up Measured logD7.4 of NC(=O)c1cc(N(CCBr)CCBr)c([N+](=O)[O-])cc1[N+](=O)[O-] [I Br Br H] and report it.
[A] 1.97

[Q] Look up Measured logD7.4 of NC(=O)c1cc([N+](=O)[O-])cc([N+](=O)[O-])c1N(CCBr)CCBr [IV Br Br H] and report it.
[A] 2.63

[Q] Look up Measured logD7.4 of O=C(NCCCO)c1cc(N(CCCl)CCCl)c([N+](=O)[O-])cc1[N+](=O)[O-] [I Cl Cl (CH2)3OH] and report it.
[A] 1.49

[Q] Look up Measured logD7.4 of O=C(NCC(O)CO)c1cc(N(CCCl)CCCl)c([N+](=O)[O-])cc1[N+](=O)[O-] (stereo not shown) [I Cl Cl CH2CHOHCH2OH] and report it.
[A] 0.93

[Q] Look up Measured logD7.4 of O=C(NCCN1CCOCC1)c1cc(N(CCCl)CCCl)c([N+](=O)[O-])cc1[N+](=O)[O-] [I Cl Cl CH2CH2-Nmorp] and report it.
[A] 1.6

[Q] Look up Measured logD7.4 of NC(=O)c1cc(N(CCCl)CCCl)c([N+](=O)[O-])cc1[N+](=O)[O-] [I Cl Cl H] and report it.
[A] 1.515

[Q] Look up Measured logD7.4 of O=C(NCC(O)CO)c1c([N+](=O)[O-])ccc(N(CCBr)CCBr)c1[N+](=O)[O-] (stereo not shown) [VI Br Br CH2CHOHCH2OH] and report it.
[A] 1.04

[Q] Look up Measured logD7.4 of CS(=O)(=O)OCCN(CCI)c1cc(C(N)=O)c([N+](=O)[O-])cc1[N+](=O)[O-] [I Iodo OSO2CH3 H] and report it.
[A] 0.743

[Q] Look up Measured logD7.4 of O=C(NCCO)c1cc([N+](=O)[O-])cc([N+](=O)[O-])c1N(CCBr)CCBr [IV Br Br CH2CH2OH] and report it.
[A] 2.33

[Q] Look up Measured logD7.4 of NC(=O)c1c([N+](=O)[O-])ccc(N(CCCl)CCCl)c1[N+](=O)[O-] [VI Cl Cl H] and report it.
[A] 1.41

[Q] Look up Measured logD7.4 of CS(=O)(=O)OCCN(CCBr)c1ccc([N+](=O)[O-])c(C(=O)NCC(O)CO)c1[N+](=O)[O-] (stereo not shown) [VI Br OSO2CH3 CH2CHOHCH2OH] and report it.
[A] -0.373

[Q] Look up Measured logD7.4 of O=C(NCCCO)c1cc(N(CCBr)CCBr)c([N+](=O)[O-])cc1[N+](=O)[O-] [I Br Br (CH2)3OH] and report it.
[A] 1.81

[Q] Look up Measured logD7.4 of O=C(NCC(O)CO)c1cc([N+](=O)[O-])cc([N+](=O)[O-])c1N(CCBr)CCBr (stereo not shown) [IV Br Br CH2CHOHCH2OH] and report it.
[A] 1.83

[Q] Look up Measured logD7.4 of CS(=O)(=O)OCCN(CCBr)c1cc(C(=O)NCCO)c([N+](=O)[O-])cc1[N+](=O)[O-] [I Br OSO2CH3 CH2CH2OH] and report it.
[A] 0.461

[Q] Look up Measured logD7.4 of CS(=O)(=O)OCCN(CCCl)c1c(C(N)=O)cc([N+](=O)[O-])cc1[N+](=O)[O-] [IV Cl OSO2CH3 H] and report it.
[A] 1.02

[Q] Look up Measured logD7.4 of O=C(NCC(O)CO)c1cc(N(CCBr)CCBr)c([N+](=O)[O-])cc1[N+](=O)[O-] (stereo not shown) [I Br Br CH2CHOHCH2OH] and report it.
[A] 1.25

[Q] Look up Measured logD7.4 of CS(=O)(=O)OCCN(CCBr)c1c(C(=O)NCC(O)CO)cc([N+](=O)[O-])cc1[N+](=O)[O-] (stereo not shown) [IV Br OSO2CH3 CH2CHOHCH2OH] and report it.
[A] 0.589

[Q] Look up Measured logD7.4 of CS(=O)(=O)c1cc([N+](=O)[O-])c(C(N)=O)cc1N(CCBr)CCBr [II Br Br H] and report it.
[A] 1.18

* * *

Known Measured logD7.4 of a selection of compounds
Settings: pH 7.4
The answer should be a number; do not append a unit.

Worked cases, Measured logD7.4 given:
[
  {
    "COMPOUND": "O=C(NCC(O)CO)c1cc(N(CCI)CCI)c([N+](=O)[O-])cc1[N+](=O)[O-] (stereo not shown)",
    "QUANTITATIVE READOUT": 1.79
  },
  {
    "COMPOUND": "O=C(NCCO)c1cc([N+](=O)[O-])cc([N+](=O)[O-])c1N(CCCl)CCCl",
    "QUANTITATIVE READOUT": 1.92
  }
]

[Q] Look up Measured logD7.4 of CS(=O)(=O)OCCN(CCCl)c1cc(C(N)=O)c([N+](=O)[O-])cc1[N+](=O)[O-] and report it.
[A] 0.425

[Q] Look up Measured logD7.4 of CS(=O)(=O)OCCN(CCBr)c1c(C(N)=O)cc([N+](=O)[O-])cc1[N+](=O)[O-] and report it.
[A] 1.23

[Q] Look up Measured logD7.4 of O=C(NCCO)c1cc(N(CCCl)CCCl)c([N+](=O)[O-])cc1[N+](=O)[O-] and report it.
[A] 1.315

[Q] Look up Measured logD7.4 of O=C(NCCCO)c1cc([N+](=O)[O-])cc([N+](=O)[O-])c1N(CCCl)CCCl and report it.
[A] 2

[Q] Look up Measured logD7.4 of NC(=O)c1cc(N(CCO)CCO)c([N+](=O)[O-])cc1N and report it.
[A] -0.445

* * *

Settings: pH 7.4
Known Measured logD7.4 of a selection of compounds

[
  {
    "SMILES STRUCTURE": "NC(=O)c1cc(N(CCI)CCI)c([N+](=O)[O-])cc1[N+](=O)[O-]",
    "Measured logD7.4": 2.408
  },
  {
    "SMILES STRUCTURE": "O=C(NO)c1cc(N(CCCl)CCCl)c([N+](=O)[O-])cc1[N+](=O)[O-]",
    "Measured logD7.4": 1.22
  },
  {
    "SMILES STRUCTURE": "CS(=O)(=O)OCCN(CCBr)c1c(C(=O)NCCO)cc([N+](=O)[O-])cc1[N+](=O)[O-]",
    "Measured logD7.4": 1.01
  }
]

Please look at the following compound next.
[Q] Look up Measured logD7.4 of NC(=O)c1cc(NO)cc([N+](=O)[O-])c1N(CCCl)CCCl and report it.
[A] 2.19
